Data origin, for the record: patent US20210032312A1

The entries below are paired with their reported pKd.
- target system: T1, human CD8A on primary human CD8+ T cells (human, UniProt P01732 22-235)
- T1 construct: whole, on cells; also called Human T-cells; CD8 alpha
- T1 sequence (P01732 22-235): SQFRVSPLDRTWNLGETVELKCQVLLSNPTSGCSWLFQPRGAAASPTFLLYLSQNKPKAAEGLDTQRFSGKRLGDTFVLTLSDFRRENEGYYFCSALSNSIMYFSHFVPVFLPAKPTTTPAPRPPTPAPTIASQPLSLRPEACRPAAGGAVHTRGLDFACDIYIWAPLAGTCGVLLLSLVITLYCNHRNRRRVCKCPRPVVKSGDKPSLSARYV
- method: MSD-CAT equilibrium cell binding, primary human CD8 T cells
pKd: −log10 of the molar value.
metric: pKd

binder	metric	value observed
CD8S370 (designed binder, P282DR9P1359_G7 with E54C; the entry holds the mutation) LPAPKNLVVSRVTEDSARLSWTAPDAAFDSFAITYIEKEHIEDGEAIVLTVPGSCRSYDLTGLKPGTEYWVPIWGVKGGANSWPLSAIFTT	pKd	9.06
CD8S369 (designed binder, P283AR9P1362_D6 with E54C; the entry holds the mutation) LPAPKNLVVSRVTEDSARLSWAKRPGAFDSFLIQYQESEKVGEAIVLTVPGSCRSYDLTGLKPGTEYTVSIYGVDVKYDIDSRPISSNPLSAIFTT	pKd	8.55
CD8S367 (designed binder, P282DR9P1359_F7 with E54C; the entry holds the mutation) LPAPKNLVVSRVTEDSARLSWTAPDAAFDSFAIAYPEWPPQGEAIVLTVPGSCRSYDLTGLKPGTEYFVVIYGVKGGSYSAPLSAIFTT	pKd	9.65
